Assembled from different publications: IC50 for Prostaglandin G/H synthase 1 (Ovis aries).
Reported endpoint: IC50 (µM)

Use the examples below as a reference point.
| Molecule | IC50 / µM |
| --- | --- |
| O=C1NN(c2ccccc2)C(c2cccnc2)=N/C1=C/c1ccc(O)cc1 | 0.096 |
| CCN(CC)c1ccc(/C=C/C(=O)/C=C/c2ccc(N(CC)CC)cc2)cc1 | 37.7 |
| CS(=O)(=O)Nc1ccc(-c2cc(-c3ccccc3)c(C#N)c(=O)[nH]2)cc1 | 9.4 |

1 = CCN(CC)c1ccc(/C=C2\CC/C(=C\c3ccc(N(CC)CC)cc3)C2=O)cc1
2 = COc1cc(C2CC(c3ccc(Cl)cc3)=NN2c2ccc(S(N)(=O)=O)cc2)cc(OC)c1OC (stereo unspecified)
3 = COc1ccc(Nc2nnc(Cn3nc(-c4ccccc4)c(-c4ccccc4)nc3=O)o2)cc1
Task item: # sort list by recorded IC50, greatest to least Returns: the labels arranged in the requested order.
Reply: 3, 1, 2
(3: 60.5 µM, 1: 32 µM, 2: 3.41 µM)

A = COc1cccc(/C=C2\CCC/C(=C\c3cccc(OC)c3OC)C2=O)c1OC
B = COc1ccc(/C=C2\SC(=S)N(NC(=O)c3sc4ccccc4c3Cl)C2=O)cc1OC
Task item: Identify the entry with the smaller IC50: A or B . Your choice should be expressed through its label.
Reply: B
(B: 3.4 µM, A: 33.3 µM)

I = CC(C=C1CCCC(=CC(C)c2ccccc2)C1=O)c1ccccc1 (stereo unspecified)
II = NS(=O)(=O)c1ccc(N2N=C(c3ccc(Br)cc3)CC2c2ccc(Cl)cc2)cc1 (stereo unspecified)
III = O=c1nc(-c2ccccc2)c(-c2ccccc2)nn1Cc1nnc(Nc2ccc([N+](=O)[O-])cc2)s1
IV = CN(C)c1ccc(/C=C2/N=C(c3cccnc3)N(c3ccccc3)NC2=O)cc1
Task item: Sort entries by IC50 from minimum to maximum value. Returns: the labels arranged in the requested order.
Reply: IV, II, III, I
(IV: 0.116 µM, II: 6.87 µM, III: 63.2 µM, I: 194 µM)

1 = COc1ccc(C2CC(c3ccc(Br)cc3)=NN2c2ccc(S(N)(=O)=O)cc2)cc1 (stereo unspecified)
2 = CC(C)Cc1ccc(-c2cc(-c3ccccc3)c(C#N)c(=O)[nH]2)cc1
Task item: Hi team, can someone confirm which has the larger IC50: 1 or 2 ? Thanks. Your choice should be expressed through its label.
Reply: 2
